# study-target: HA of ca A/Beijing/262/95 (H1N1) (influenza A virus)
# assay-notes: cell-based or functional assay
Outcome: 1 for Neutralization IC50, H1-BJ95 of at least 5 µg/mL; 0 for anything lower.

>>> assigned_category("Antibody 10 (antibody, V domains shown) VH: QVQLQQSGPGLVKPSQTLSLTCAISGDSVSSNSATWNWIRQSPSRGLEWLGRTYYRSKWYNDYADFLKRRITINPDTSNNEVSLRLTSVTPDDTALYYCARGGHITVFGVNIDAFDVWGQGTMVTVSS VL: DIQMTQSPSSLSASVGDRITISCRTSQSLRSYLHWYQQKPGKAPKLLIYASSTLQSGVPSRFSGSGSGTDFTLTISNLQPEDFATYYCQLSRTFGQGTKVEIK")
0
>>> assigned_category("Antibody 6 (antibody, V domains shown) VH: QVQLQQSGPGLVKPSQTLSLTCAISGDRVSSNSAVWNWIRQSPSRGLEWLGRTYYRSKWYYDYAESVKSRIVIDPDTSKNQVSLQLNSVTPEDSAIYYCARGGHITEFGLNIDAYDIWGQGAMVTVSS VL: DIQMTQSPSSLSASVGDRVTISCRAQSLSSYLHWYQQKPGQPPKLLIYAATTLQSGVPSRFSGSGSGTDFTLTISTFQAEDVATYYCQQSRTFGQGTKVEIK")
1
>>> assigned_category("Antibody 3 (antibody, V domains shown) VH: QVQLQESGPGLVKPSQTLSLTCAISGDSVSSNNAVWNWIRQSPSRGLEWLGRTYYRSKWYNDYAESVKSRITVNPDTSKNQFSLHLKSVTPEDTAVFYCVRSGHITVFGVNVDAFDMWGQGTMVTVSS VL: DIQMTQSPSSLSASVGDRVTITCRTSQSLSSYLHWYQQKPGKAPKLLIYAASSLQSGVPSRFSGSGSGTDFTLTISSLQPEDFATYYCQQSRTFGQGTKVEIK")
0
>>> assigned_category("Antibody 8 (antibody, V domains shown) VH: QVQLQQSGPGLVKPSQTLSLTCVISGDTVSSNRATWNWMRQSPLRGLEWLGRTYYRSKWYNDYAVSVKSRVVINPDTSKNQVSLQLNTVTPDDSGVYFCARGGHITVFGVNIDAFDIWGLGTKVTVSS VL: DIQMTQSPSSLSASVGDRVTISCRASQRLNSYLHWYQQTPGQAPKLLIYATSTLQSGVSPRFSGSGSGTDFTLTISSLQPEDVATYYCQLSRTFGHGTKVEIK")
1
